Tested on: UniProt:P53667
Sequence (P53667 whole entry, looked up): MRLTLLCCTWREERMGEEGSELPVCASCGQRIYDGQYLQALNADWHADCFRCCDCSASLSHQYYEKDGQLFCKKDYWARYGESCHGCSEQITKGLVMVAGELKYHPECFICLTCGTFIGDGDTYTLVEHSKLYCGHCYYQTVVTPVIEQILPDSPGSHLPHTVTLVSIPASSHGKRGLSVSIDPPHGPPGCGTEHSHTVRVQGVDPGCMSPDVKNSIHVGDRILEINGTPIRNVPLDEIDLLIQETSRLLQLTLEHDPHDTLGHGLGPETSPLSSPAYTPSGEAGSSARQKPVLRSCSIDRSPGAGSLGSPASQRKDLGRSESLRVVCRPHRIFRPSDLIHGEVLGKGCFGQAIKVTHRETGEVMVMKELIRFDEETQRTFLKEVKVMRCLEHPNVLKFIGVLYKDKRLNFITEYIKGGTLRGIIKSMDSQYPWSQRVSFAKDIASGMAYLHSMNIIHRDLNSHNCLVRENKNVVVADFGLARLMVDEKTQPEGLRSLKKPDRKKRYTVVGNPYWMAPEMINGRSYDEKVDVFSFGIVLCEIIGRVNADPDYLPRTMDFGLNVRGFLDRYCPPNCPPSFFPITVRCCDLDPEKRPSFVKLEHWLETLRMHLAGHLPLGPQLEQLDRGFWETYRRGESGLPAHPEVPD
Protocol notes: radiometric filter-binding kinase assay, Kinase HotSpot
Test settings: compound 0.5 µM; ATP 10 µM
Param threshold (90%) applies to residual activity; output Met when value >= threshold, Not met when value < threshold.

These solved cases illustrate the format of a correct answer.
Smiles notation | Discrete label
O=C1NC(=O)c2c1c1c3ccccc3[nH]c1c1[nH]c3cc(Br)ccc3c21 | Not met
O=C1NC(=O)c2cc(Nc3ccc(F)cc3)c(Nc3ccc(F)cc3)cc21 | Met
CCCCc1c(-c2ccc(O)cc2)[nH]c2nccnc12 | Not met
COc1cccc(-c2cc(=O)c3ccccc3o2)c1N | Met
O=c1cc(N2CCOCC2)oc2c(-c3ccccc3)cccc12 | Met

q: Given the entry `O=c1[nH]c2ccccc2n1C1CCN(Cc2ccc(-c3nc4cc5[nH]cnc5cc4nc3-c3ccccc3)cc2)CC1` , answer whether its residual activity meets or surpasses 90%.
a: Met

q: // repeat for `N#Cc1c(NC(=O)c2cccc3ccccc23)sc2c1CCCC2` and report
a: Met

q: One more compound: `O=c1c2ccccc2[nH]c(=S)n1CCN1CCC(=C(c2ccc(F)cc2)c2ccc(F)cc2)CC1`
a: Met
